# testDescription: In vivo pharmacokinetics in mice
# experimentalSetup: male, BALB/c, mouse, plasma, po, 3 mg/kg
parameterMeasured: Cmax (ng/mL)

• C=CC(=O)N1CC2CC(n3nc(-c4ccc(C(=O)Nc5ccccn5)cc4)c4c(N)ncnc43)CC2C1 (stereo not shown) = 703

* * *

# testDescription: In vivo pharmacokinetics in rats
# Set-up: species or system male Wistar rats
# experimentalSetup: male, Wistar, rat, plasma, iv, 1 mg/kg
parameterMeasured: Vd

* C=CC(=O)N1CC2CC(n3nc(-c4ccc(C(=O)Nc5ccccn5)cc4)c4c(N)ncnc43)CC2C1 (stereo not shown) [ZYBT1] | 0.88 L/kg

* * *

# systemUnderTest: JAK3 (Homo sapiens)
# Sequence (P52333 1-1124): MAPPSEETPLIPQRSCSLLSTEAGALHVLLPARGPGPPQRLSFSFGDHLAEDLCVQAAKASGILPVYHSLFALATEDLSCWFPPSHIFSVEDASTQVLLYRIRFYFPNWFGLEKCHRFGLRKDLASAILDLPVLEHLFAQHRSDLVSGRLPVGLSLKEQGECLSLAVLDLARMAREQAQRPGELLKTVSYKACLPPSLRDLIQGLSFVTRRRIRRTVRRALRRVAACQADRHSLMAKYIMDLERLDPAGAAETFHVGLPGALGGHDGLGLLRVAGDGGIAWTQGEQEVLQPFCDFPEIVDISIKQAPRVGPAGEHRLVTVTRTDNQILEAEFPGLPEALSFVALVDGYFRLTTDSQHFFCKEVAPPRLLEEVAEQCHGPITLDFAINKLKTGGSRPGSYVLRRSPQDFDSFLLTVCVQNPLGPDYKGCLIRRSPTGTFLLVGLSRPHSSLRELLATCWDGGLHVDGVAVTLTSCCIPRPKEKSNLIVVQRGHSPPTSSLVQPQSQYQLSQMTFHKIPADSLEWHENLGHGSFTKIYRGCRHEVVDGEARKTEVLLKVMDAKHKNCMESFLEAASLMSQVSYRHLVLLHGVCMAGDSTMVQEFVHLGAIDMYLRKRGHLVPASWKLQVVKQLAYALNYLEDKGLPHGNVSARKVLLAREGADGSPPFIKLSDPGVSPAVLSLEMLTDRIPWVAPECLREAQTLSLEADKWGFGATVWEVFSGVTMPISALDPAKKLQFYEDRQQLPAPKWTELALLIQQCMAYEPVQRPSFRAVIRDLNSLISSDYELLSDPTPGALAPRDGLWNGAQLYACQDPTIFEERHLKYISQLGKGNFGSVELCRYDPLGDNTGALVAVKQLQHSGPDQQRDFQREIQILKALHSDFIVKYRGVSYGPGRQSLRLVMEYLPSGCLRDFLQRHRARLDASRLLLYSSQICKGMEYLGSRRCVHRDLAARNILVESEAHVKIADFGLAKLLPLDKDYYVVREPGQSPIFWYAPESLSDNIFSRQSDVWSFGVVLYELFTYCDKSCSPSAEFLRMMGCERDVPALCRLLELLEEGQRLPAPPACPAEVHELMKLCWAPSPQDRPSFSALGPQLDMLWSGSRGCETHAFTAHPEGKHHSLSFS
parameterMeasured: IC50

* C=CC(=O)N1CC2CC(n3nc(-c4ccc(C(=O)Nc5ccccn5)cc4)c4c(N)ncnc43)CC2C1 (stereo not shown) | > 10 µM
